Target: T1, human plasma kallikrein (human, UniProt P03952 20-390; P03952 391-638)
T1 construct: also called pKal; Human pKal
T1 sequence (P03952 20-390, chain 1 of 2): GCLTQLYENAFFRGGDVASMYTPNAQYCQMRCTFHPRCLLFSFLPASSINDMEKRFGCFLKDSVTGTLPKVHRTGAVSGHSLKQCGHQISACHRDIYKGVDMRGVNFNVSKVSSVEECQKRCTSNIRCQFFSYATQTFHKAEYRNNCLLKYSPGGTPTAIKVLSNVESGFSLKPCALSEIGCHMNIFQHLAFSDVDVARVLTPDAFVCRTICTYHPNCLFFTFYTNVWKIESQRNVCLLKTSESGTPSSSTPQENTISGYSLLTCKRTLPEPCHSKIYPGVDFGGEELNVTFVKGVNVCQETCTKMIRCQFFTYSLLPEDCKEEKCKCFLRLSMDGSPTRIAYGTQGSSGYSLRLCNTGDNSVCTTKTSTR
T1 sequence (P03952 391-638, chain 2 of 2): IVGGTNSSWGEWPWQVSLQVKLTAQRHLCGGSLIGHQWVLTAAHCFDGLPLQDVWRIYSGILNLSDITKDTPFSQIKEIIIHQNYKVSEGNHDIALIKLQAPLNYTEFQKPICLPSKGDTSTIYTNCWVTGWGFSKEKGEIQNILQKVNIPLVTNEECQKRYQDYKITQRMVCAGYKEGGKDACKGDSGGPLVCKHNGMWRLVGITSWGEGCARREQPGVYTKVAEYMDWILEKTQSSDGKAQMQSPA
Assay: ELISA, biotinylated pKal signal over streptavidin background
Reported ELISA (T/B) is given for each of the following binders.
Quick reminder: number only, in T/B, skip the unit.

Reference set, count: 2
- M146-E12 (Fab, V domains shown, HC as printed runs into CH1) VH: EVQLLESGGGLVQPGGSLRLSCAASGFTFSRYIMHWVRQAPGKGLEWVSSISPSGGLTSYADSVKGRFTISRDNSKNTLYLQMNSLRAEDTAVYYCAREFENAYHYYYYGMDVWGQGTTVTVSS VL: DIQMTQSPSSLSASVGDRVTITCRASGDIGNALGWYQQKPGKAPRLLISDASTLQSGVPLRFSGSGSGTEFTLTISSLQPEDFATYYCLQGYNYPRTFGQGTKLEIR: 49.6
- M9-H03 (Fab, V domains shown, HC as printed runs into CH1) VH: EVQLLESGGGLVQPGGSLRLSCAASGFTFSWYSMGWVRQAPGKGLEWVSYIVPSGGYTMYADSVKGRFTISRDNSKNTLYLQMNSLRAEDTAVYYCARDPGVSYYYYGMDVWGQGTTVTVSS VL: QYELTQAPSVSVAPGQTASITCSGDKLGNRYTSWYQQKPGQSPVLVIFQDNKRPSGIPERFSGSNSGNTATLTISGTQAMDEADYYCQALDSNTYVFGTGTKVTVL: 4.4

Problem: Provide one value: measured ELISA (T/B) of M27-F11 (Fab, V domains shown, HC as printed runs into CH1) VH: EVQLLESGGGLVQPGGSLRLSCAASGFTFSSYHMMWVRQAPGKGLEWVSSIYPSGGATMYADSVKGRFTISRDNSKNTLYLQMNSLRAEDTAMYYCARDGYHYGDYTYFQHWGQGTLVTVSS VL: DIQMTQSPSFLSASVGDRVTITCRASQGISSYLAWYQQKPGKAPKLLIYAASSLQSGVPSRFSGSGSGTDFTLTISSLQPEDFATYYCQQSYNTLRTFGPGTKVDLK
Solution: 10
